# System: RXF 393
# method description: NCI tumour cell line growth inhibition, 48 h
The source made the active and inactive calls. No stated cut-off is given here; in the data, active = GI50 up to about 1.1 µM and inactive = higher.
Just give me one of these, please: active, inactive

Cc1c(N)nc([C@H](CC(N)=O)NC[C@H](N)C(N)=O)nc1C(=O)N[C@H](C(=O)N[C@H](C)[C@@H](O)CC(=O)N[C@H](C(=O)NC(O[C@@H]1O[C@@H](C)[C@@H](N)[C@@H](O)[C@H]1O)C(O)c1nc(-c2nc(C(=O)NCCCCN)cs2)cs1)[C@@H](C)O)[C@@H](O[C@@H]1O[C@@H](CO)[C@@H](O)[C@H](O)[C@@H]1O[C@H]1O[C@H](CO)[C@@H](O)[C@H](OC(N)=O)[C@@H]1O)c1c[nH]cn1 (some centres undefined)
inactive
O=c1oc2ccc([N+](=O)[O-])cc2cc1Br
inactive
COC(=O)c1nc2c(C)c(O)c(O)c([C@H](C)CCC=C(C)C)c2o1
inactive
NC(CCC(=O)Nc1ccc(O)cc1)C(=O)O (centres undefined)
inactive
CC(=O)OC1CCC2(C)C(CCC3C4CC=C(C5(C)OCCO5)C4(C)CCC32)C1 (centres undefined)
inactive
Fc1ccc(C2SCc3nc4ccccc4n32)cc1 (centres undefined)
inactive
Cc1c2cccc-2c(OCCOC(=O)n2ccnc2)cc2c1[nH]c1ccccc12
inactive
Cc1ccc(Nc2nc(C)c(C(/C=C/c3ccc(/C=C/C(=N/NC(=O)C[n+]4ccccc4)c4sc(Nc5ccc(C)cc5[N+](=O)[O-])nc4C)cc3)=N\NC(=O)C[n+]3ccccc3)s2)c([N+](=O)[O-])c1
inactive
Cc1cc(O)c2c(c1)C(C1c3cccc(O)c3C(=O)c3c(O)cc(C)cc31)c1cccc(O)c1C2=O (centres undefined)
active
CCCCc1c2c(nc3c1CCc1cc4c(nc1-3)-c1nc3c(c(CCCC)c1CC4)CCC/C3=C\c1ccccc1)/C(=C/c1ccccc1)CCC2
inactive

Q: Could you kindly confirm the outcome this assay logged for Cc1nn(C)cc1P(=S)(c1ccccc1)c1ccccc1 ?
Ans: inactive

###

Below: a set of entries, each annotated with reported GI50.
# Tested on: DU-145
# method description: NCI tumour cell line growth inhibition, 48 h
Active and inactive are the calls of the source. Cut-off read from the data, not from the text of the source: active = GI50 up to about 1.1 µM and inactive = higher. Where a SMILES comes first, the peptide text is derived from it. The star is where a group is joined. Boc = CC(C)(C)OC(=O)*; OBn = c1ccc(CO*)cc1

// worked examples, GI50 included
CC(=N\N=C\c1ccccn1)/C(C)=N/N=C(C)/C(C)=N/N=C(C)/C(C)=N/N=C/c1ccccn1
> 100 µM (inactive)
Cn1c2c(c3ccccc31)CC1c3c(c4ccccc4n3C)CC21 (stereo unspecified)
> 100 µM (inactive)
Cc1cn(C(=O)NC23CC4CC(CC(C4)C2)C3)c(=O)[nH]c1=O
> 100 µM (inactive)
CC(NC(=O)C(Cc1ccccc1)NC(=O)C(Cc1ccccc1)NC(=O)OC(C)(C)C)C(=O)OCc1ccccc1 (stereo not drawn) (Boc-Phe-Phe-Ala-OBn; configuration not given here)
> 100 µM (inactive)
CC(C)=CC1C(COC(=O)c2ccccc2Cl)C1(C)C (stereo unspecified)
32.8 µM (inactive)

Next compound, please.
Q: Param item = Cc1ccc2ccccc2c1CC1S(=O)(=O)OCCOS1(=O)=O ; retrieve measured GI50.
Ans: 11.9 µM (inactive)
